- tested.on: T1, CRBN, Q96SW2
- T1 chain: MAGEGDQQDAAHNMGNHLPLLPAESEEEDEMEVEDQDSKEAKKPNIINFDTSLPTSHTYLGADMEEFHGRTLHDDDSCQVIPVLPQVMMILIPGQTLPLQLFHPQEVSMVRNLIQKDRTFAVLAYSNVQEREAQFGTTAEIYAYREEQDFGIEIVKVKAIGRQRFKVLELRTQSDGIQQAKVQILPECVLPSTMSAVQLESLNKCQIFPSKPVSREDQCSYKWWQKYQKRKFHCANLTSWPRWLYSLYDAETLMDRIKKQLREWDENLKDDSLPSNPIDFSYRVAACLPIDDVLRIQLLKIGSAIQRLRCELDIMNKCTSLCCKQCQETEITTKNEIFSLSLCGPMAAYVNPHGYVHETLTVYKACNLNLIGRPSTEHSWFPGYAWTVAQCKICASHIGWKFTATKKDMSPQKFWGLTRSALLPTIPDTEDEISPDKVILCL
- experiment: log2 fold change of degron read counts, EGFP-low vs EGFP+ sorted cells (limma voom), compound-induced degradation; higher = more compound-induced degradation of the degron-EGFP fusion; degrons are variants of IKZF1/3 zinc finger 2; compound dose not given here;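 note: pooled lentiviral library of zinc finger degron-EGFP fusions in mCherry-positive Jurkat cells, FACS-sorted after compound exposure, with degron abundance counted by next-generation sequencing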
- assay.setup: Jurkat; 18 h; compound: compound 22 (5-morpholino-thalidomide)
Over roughly 8,300 sequences, “log2 fold change of degron read counts, EGFP-low vs EGFP+ sorted cells (limma voom), compound-induced degradation” has its median near -1.1; the highest 2% begin near 3.2. The list comes from a sample in which the highest values are over-represented; it also holds close analogues and randomly drawn sequences.
quantity.kind: log2 fold change of degron read counts

FCCPVCGAAFTQKGNLLRHIKL [46F_47C_49P_50V_52G_53A_54A_55F_67L_, Q9UKT9]; 2.58
FWCPVCGAAFTQKGNLLRHIKL [46F_47W_49P_50V_52G_53A_54A_55F_67L_, Q9UKT9]; 3.69
FYCPQCGAAFTQKGNLLRHIKL [46F_47Y_49P_50Q_52G_53A_54A_55F_67L_, Q9UKT9]; 1.46
FGCPVCGAAFTQKGNLLRHIKL [46F_47G_49P_50V_52G_53A_54A_55F_67L_, Q9UKT9]; 2.34
FFCNVCGAYFTQKGNLLRHIKL [46F_47F_49N_50V_52G_53A_54Y_55F_67L_, Q9UKT9]; 0.227
FMCPVCGAAFTQKGNLLRHIKL [46F_47M_49P_50V_52G_53A_54A_55F_67L_, Q9UKT9]; 2.21
FTCEICGASFTQKGNLLRHIKL [46F_47T_49E_50I_52G_53A_54S_55F_67L_, Q9UKT9]; 3.03
